Test system: T1, recombinant human full-length TDP-43 (human, UniProt Q13148 1-414)
T1 construct: Recombinant full-length protein; also called FL TDP-43; recFL TDP-43
T1 sequence (Q13148 whole entry): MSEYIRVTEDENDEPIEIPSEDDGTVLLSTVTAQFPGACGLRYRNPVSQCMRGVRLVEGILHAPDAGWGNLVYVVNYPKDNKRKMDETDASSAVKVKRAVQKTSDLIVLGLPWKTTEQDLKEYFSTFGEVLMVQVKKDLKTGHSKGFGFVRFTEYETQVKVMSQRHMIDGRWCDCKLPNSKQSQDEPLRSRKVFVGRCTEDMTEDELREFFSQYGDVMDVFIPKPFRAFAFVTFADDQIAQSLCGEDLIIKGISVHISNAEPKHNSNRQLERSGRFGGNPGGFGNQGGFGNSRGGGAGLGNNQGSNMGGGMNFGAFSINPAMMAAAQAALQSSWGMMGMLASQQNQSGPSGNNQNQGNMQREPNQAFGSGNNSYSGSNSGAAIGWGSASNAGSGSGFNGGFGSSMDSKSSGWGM
Experiment: SPR avidity (Biacore T200), TDP-43 monomer immobilised, antibody as analyte, 1:1 model
The reader will find reported Kd values listed item by item below.
The reply should be a number in nM, with the unit left off.

{"columns": ["Binder", "Unit", "Kd"],
 "data": [
  ["ACI-7062-412A7-Ab1 (antibody, IgG2b, V domains shown, also called 412A7B7; clone 9) VH: DVQLVESGGGLVQPGGSRRLSCAASGFTFSSFGMHWVRQAPEKGLEWVAYIRSGSDIIYYADSVKGRFTISRDNPENTLFLQMTSLRSEDTAMYYCARSGTTVPFDYWGQGTSLTVSS VL: DIVMTQSPSSLAMSVGQKVTMSCKSSQSLLNSGNQKNYLAWYQQKPGQSPELLLYFASTRASGVPDRFIGSGSGTDFTLTISSVQAEDLADYFCQQHYSIPLTFGAGTKLELKR", "nM", 1]
]}

So what does the record say about Kd for ACI-7062-416A11-Ab1 (antibody, IgG2a, V domains shown, also called 416A11B3; clone 18) VH: QVTLKESGPGILQSSQTLSLTCSFSGFSLSTYGIGVGWIRQPSGKGLEWLAHIWWNDNKYYNTALKSRLTISKDTSNNQVFLKIASVDTADAATYYCARVYGNLYYFGYWGQGTTLTVSS VL: DVLMTQTPLSLPVSLGDRASISCRSSQSIVHSSGNTYLEWYLQKPGQSPKLLIYKVSNRFSGVPDRFSGSGSGTDFTLKISRVEAEDLGVYYCFQGSRVPTFGAGTKLELKR ? 2.4

Where do these numbers come from? They come from patent US20220025023A1.
